# Target: Human MC1R (Homo sapiens, UniProt Q01726)
# Construct: endogenous in cells; host or cells: human melanoma cell line HBL
# Sequence (Q01726 whole entry): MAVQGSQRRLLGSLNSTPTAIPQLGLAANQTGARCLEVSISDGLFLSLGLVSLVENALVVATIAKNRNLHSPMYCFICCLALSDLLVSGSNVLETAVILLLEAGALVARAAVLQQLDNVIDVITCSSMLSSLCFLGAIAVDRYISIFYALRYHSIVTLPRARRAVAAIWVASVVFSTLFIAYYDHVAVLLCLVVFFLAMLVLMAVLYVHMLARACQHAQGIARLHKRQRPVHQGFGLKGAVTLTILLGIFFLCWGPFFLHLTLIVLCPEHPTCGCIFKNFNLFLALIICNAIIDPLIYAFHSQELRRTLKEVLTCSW
# Test details: MCR agonist measurement (cAMP measurement), human MC1R agonist activity in human melanoma cell line HBL
# Format: cell-based
# Assay conditions: Intrinsic Activity; vehicle cAMP = 0%, αMSH at 10^-6 M = 100%; HBL cells
Observed property: Human MC1R IA % (%)
Provide only the numeric value, understood in %.

Molecule	Human MC1R IA % (%)
COc1ccc([C@@H]2CN(C(C)(C)C)C[C@@]2(F)C(=O)N2CCC(c3ccc(C(F)(F)F)cc3N3CCC(C(=O)O)CC3)CC2)c(F)c1	111
COC[C@H]1CN(C(=O)[C@]2(F)CN(C3CCCC3)C[C@H]2c2ccc(OC)cc2)C[C@@H]1c1cc(F)c(F)cc1N1CCC(C(=O)O)CC1	107
COc1ccc([C@@H]2CN(C(C)(C)C)C[C@@]2(F)C(=O)N2CC(c3ccc(C(F)(F)F)cc3N3CCC(C(=O)O)CC3)C2)cc1	119

Query string: Quickly give me recorded Human MC1R IA % for COC[C@H]1CN(C(=O)[C@]2(F)CN(CC(=O)N3CCCCC3)C[C@H]2c2ccc(OC)cc2)C[C@@H]1c1ccc(C(F)(F)F)cc1N1CCC(C(=O)O)CC1
Result string: 96

Query string: Quickly give me recorded Human MC1R IA % for COc1ccc([C@@H]2CN(C3CCCC3)C[C@@]2(F)C(=O)N2CC(c3ccc(C(F)(F)F)cc3N3CCC(C(=O)O)CC3)C(F)(F)C2)cc1 (single isomer, unassigned) [Example 294]
Result string: 81

Query string: Quickly give me recorded Human MC1R IA % for COc1ccc([C@@H]2CN(C(C)(C)C)C[C@@]2(F)C(=O)N2CCC(c3ccc(C(F)F)cc3N3CCC(C(=O)O)CC3)CC2)cc1
Result string: 66

Query string: Quickly give me recorded Human MC1R IA % for COc1ccc([C@@H]2CN(C(C)(C)C)C[C@@]2(F)C(=O)N2C[C@H](C(=O)N(C)C)[C@@H](c3ccc(C(F)(F)F)cc3N3CCC(C(=O)O)CC3)C2)cc1.Cl.Cl
Result string: 132

Query string: Quickly give me recorded Human MC1R IA % for COc1ccc([C@@H]2CN(C(C)(C)C)C[C@@]2(F)C(=O)N2CCC(c3ccc(C(F)(F)F)cc3N3CCC(C(=O)NS(C)(=O)=O)CC3)CC2)cc1
Result string: 89

Query string: Quickly give me recorded Human MC1R IA % for COC[C@@H]1C[C@@H](c2ccc(F)cc2N2CCC(C(=O)O)CC2)CN1C(=O)[C@]1(F)CN([C@H]2CC[C@H](OC)CC2)C[C@H]1c1ccc(OC)cc1.Cl.Cl
Result string: 102

Query string: Quickly give me recorded Human MC1R IA % for COc1ccc([C@@H]2CN(C3CCCC3)C[C@@]2(F)C(=O)N2C[C@H](c3ccc(F)cc3N3CCC(C(=O)O)CC3)[C@@H](C)C2)cc1
Result string: 90

Query string: Quickly give me recorded Human MC1R IA % for CCO[C@H]1CC[C@@H](N2C[C@@H](c3ccc(OC)cc3)[C@](F)(C(=O)N3C[C@H](COC)[C@@H](c4ccc(C(F)(F)F)cc4N4CCC(C(=O)O)CC4)C3)C2)CC1
Result string: 53

----------
# Target: Human MC1R (Homo sapiens, UniProt Q01726)
# Construct: endogenous in cells; host or cells: human melanoma cell line HBL
# Test details: MCR agonist measurement (cAMP measurement), human MC1R agonist activity in human melanoma cell line HBL
# Type: cell-based
# Assay conditions: Intrinsic Activity; vehicle cAMP = 0%, αMSH at 10^-6 M = 100%; HBL cells
// values below are reported Human MC1R IA %
Provide only the numeric value, understood in %.

Worked cases, Human MC1R IA % given:
Compound	Target	Observed property	Observed
COC[C@H]1CN(C(=O)[C@]2(OC)CN(C3CCCC3)C[C@H]2c2ccc(OC)cc2)C[C@@H]1c1ccc(C(F)(F)F)cc1N1CCC(C(=O)O)CC1 [Example 125]	Human MC1R (Homo sapiens, UniProt Q01726)	Human MC1R IA %	74
CNC(=O)C1CCN(c2cc(C(F)(F)F)ccc2C2CCN(C(=O)[C@]3(F)CN(C(C)(C)C)C[C@H]3c3ccc(OC)cc3)CC2)CC1.Cl.Cl [Example 231]	Human MC1R (Homo sapiens, UniProt Q01726)	Human MC1R IA %	82

Now turn to the next compound.
Query string: Quickly give me recorded Human MC1R IA % for COC[C@H]1CN(C(=O)[C@]2(F)CN([C@H]3CC[C@H](OC)CC3)C[C@H]2c2ccc(OC)cc2)C[C@@H]1c1ccc(C(F)(F)F)cc1N1CCC(C(=O)O)CC1 [Example 99]
Result string: 117

----------
// values below are reported Human MC1R IA %
# Target: Human MC1R (Homo sapiens)
# Construct: endogenous in cells; host or cells: human melanoma cell line HBL
# Test details: MCR agonist measurement (cAMP measurement), human MC1R agonist activity in human melanoma cell line HBL
# Assay type: cell-based
# Assay conditions: Intrinsic Activity; vehicle cAMP = 0%, αMSH at 10^-6 M = 100%; HBL cells
Provide only the numeric value, understood in %.

>>> print(df.to_string())
                              smiles_record                     target  observed
0  COC[C@@H]1C[C@@H](c2ccc(Cl)cc2N2CCC(C(=O)O)CC2)CN1C(=O)[C@]1(F)CN([C@H]2CC[C@H](OC)CC2)C[C@H]1c1ccc(OC)cc1  Human MC1R (Homo sapiens)        83
1  COc1ccc([C@@H]2CN(C3CCCC3)C[C@@]2(F)C(=O)N2C[C@H](c3ccc(C(F)(F)F)cc3N3CCC(C(=O)O)CC3)[C@@H](C(C)(C)O)C2)cc1.Cl.Cl  Human MC1R (Homo sapiens)        77
2  COc1ccc([C@@H]2CN(CCCS(=O)(=O)N3CCCC3)C[C@@]2(F)C(=O)N2CCC(c3ccc(C(F)(F)F)cc3N3CCC(C(=O)O)CC3)CC2)cc1  Human MC1R (Homo sapiens)       105
3  COc1ccc([C@@H]2CN(C(C)(C)C)C[C@@]2(F)C(=O)N2CCC(c3ccc(C(F)(F)F)cc3N3CCNCC3)CC2)cc1  Human MC1R (Homo sapiens)        72
4  COc1ccc([C@@H]2CN([C@H]3CC[C@H](OC)CC3)C[C@@]2(F)C(=O)N2CC[C@@H](c3ccc(F)cc3N3CCC(C(=O)O)CC3)C2)cc1  Human MC1R (Homo sapiens)       110
5  COc1ccc([C@@H]2CN(C(C)(C)C)C[C@@]2(F)C(=O)N2CC(c3ccc(C(F)(F)F)cc3N3CCC(C(=O)N(C)C)CC3)C2)cc1  Human MC1R (Homo sapiens)       149
6  COc1ccc([C@@H]2CN(C(C)(C)C)C[C@@]2(F)C(=O)N2C[C@H](C(=O)O)[C@@H](c3ccc(C(F)(F)F)cc3N3CCC(C(=O)OC(C)(C)C)CC3)C2)cc1  Human MC1R (Homo sapiens)        71
7  COc1ccc([C@@H]2CN(C(C)(C)C)C[C@@]2(F)C(=O)N2CCC(C#N)(c3ccc(C(F)(F)F)cc3-c3ccc(C(=O)O)cc3)CC2)cc1  Human MC1R (Homo sapiens)        90

Query string: Find the measured Human MC1R IA % of COc1ccc([C@@H]2CN(C3CCCC3)C[C@@]2(F)C(=O)N2CCC=C(c3ccc(C(F)(F)F)cc3N3CCC(C(=O)O)CC3)C2)cc1 with Human MC1R (Homo sapiens) as test system.
Result string: 36

Query string: Find the measured Human MC1R IA % of COC[C@H]1CN(C(=O)[C@]2(F)CN(c3ccc(OC)nn3)C[C@H]2c2ccc(OC)cc2)C[C@@H]1c1ccc(C(F)(F)F)cc1N1CCC(C(=O)O)CC1 with Human MC1R (Homo sapiens) as test system.
Result string: 53

Query string: Find the measured Human MC1R IA % of COc1ccc([C@@H]2CN(CCCC(=O)N(C)C)C[C@@]2(F)C(=O)N2CCC(c3ccc(C(F)(F)F)cc3N3CCC(C(=O)O)CC3)CC2)cc1 with Human MC1R (Homo sapiens) as test system.
Result string: 89

----------
# Target: Human MC1R (Homo sapiens)
# Construct: endogenous in cells
# Test details: MCR agonist measurement (cAMP measurement), human MC1R agonist activity in human melanoma cell line HBL
# Assay conditions: HBL cells, 37° C. for 30 minutes, intracellular cAMP by fluorescence method
Observed property: pEC50
Bear in mind: pEC50 is minus log10 of a mol/L concentration; give just that figure.

Worked cases, pEC50 given:
Compound	pEC50
CCc1ccc([C@@H]2CN(C(C)(C)C)C[C@@]2(F)C(=O)N2CCC(c3ccc(C(F)(F)F)cc3N3CCC(C(=O)O)CC3)CC2)cc1	7.36
COc1ccc([C@@H]2CN(C(C)(C)C)C[C@@]2(F)C(=O)N2CCC(c3ccc(C(F)(F)F)cc3N3C[C@@H]4[C@H](C3)[C@H]4C(=O)O)CC2)cc1	7.31
COc1ccc([C@@H]2CN(CCCS(=O)(=O)N3CCCC3)C[C@@]2(F)C(=O)N2CCC(c3ccc(C(F)(F)F)cc3N3CCC(C(=O)O)CC3)CC2)cc1	7.64

Query string: Quickly give me recorded pEC50 for COC[C@H]1CN(C(=O)[C@]2(F)CN([C@H]3CC[C@H](OC)CC3)C[C@H]2c2ccc(OC)cc2)C[C@@H]1c1ccc(C(F)(F)F)cc1N1CCC(C(=O)O)CC1
Result string: 8.33

Query string: Quickly give me recorded pEC50 for COc1ccc([C@@H]2CN(C(C)(C)C)C[C@@]2(F)C(=O)N2CCC(c3ccc(C(F)(F)F)cc3-c3ccc(C(=O)O)cc3)CC2)cc1
Result string: 7.16

Query string: Quickly give me recorded pEC50 for CCO[C@H]1CC[C@@H](N2C[C@@H](c3ccc(OC)cc3)[C@](F)(C(=O)N3C[C@H](COC)[C@@H](c4ccc(C(F)(F)F)cc4N4CCC(C(=O)O)CC4)C3)C2)CC1
Result string: 7.82

Query string: Quickly give me recorded pEC50 for COc1ccc([C@@H]2CN(C(C)(C)C)C[C@@]2(F)C(=O)N2CCC(c3ccc(C(F)(F)F)cc3N3CCC(C(=O)N(C)C)CC3)CC2)cc1
Result string: 8.14

Query string: Quickly give me recorded pEC50 for COC[C@H]1CN(C(=O)[C@]2(F)CN(CC(=O)N3CCCCC3)C[C@H]2c2ccc(OC)cc2)C[C@@H]1c1ccc(C(F)(F)F)cc1N1CCC(C(=O)O)CC1
Result string: 8.17

Query string: Quickly give me recorded pEC50 for COc1ccc([C@@H]2CN(C(C)(C)C)C[C@@]2(F)C(=O)N2CCC(c3ccc(C(F)(F)F)cc3OCCCC(=O)NS(=O)(=O)N(C)C)CC2)cc1.Cl [Example 272, hydrochloride]
Result string: 7.74

Query string: Quickly give me recorded pEC50 for COc1ccc([C@@H]2CN(C(C)(C)C)C[C@@]2(F)C(=O)N2CCC(c3ccc(C(F)(F)F)cc3[C@H]3C[C@H](C(=O)O)C3)CC2)cc1
Result string: 8.13

Query string: Quickly give me recorded pEC50 for COc1ccc([C@@H]2CN(C(C)(C)C)C[C@@]2(F)C(=O)N2CCC(c3ccc(C(F)(F)F)cc3OCCCc3noc(=O)[nH]3)CC2)cc1.Cl [Example 295, hydrochloride]
Result string: 7.51

Query string: Quickly give me recorded pEC50 for COc1ccc([C@@H]2CN(C(C)(C)C)C[C@@]2(F)C(=O)N2CCC(c3ccc(C(F)(F)F)cc3N3CCN(C(N)=O)CC3)CC2)cc1.Cl.Cl [Example 284, dihydrochloride]
Result string: 7.85

Query string: Quickly give me recorded pEC50 for CNC(=O)C1CCN(c2cc(C(F)(F)F)ccc2C2CCN(C(=O)[C@]3(F)CN(C(C)(C)C)C[C@H]3c3ccc(OC)cc3)CC2)CC1.Cl.Cl [Example 231, dihydrochloride]
Result string: 7.96

Query string: Quickly give me recorded pEC50 for COc1ccc([C@@H]2CN(C(C)(C)C)C[C@@]2(F)C(=O)N2CCC(c3ccc(C(F)F)cc3N3CCC(C(=O)O)CC3)CC2)cc1
Result string: 7.35

Query string: Quickly give me recorded pEC50 for COc1ccc([C@@H]2CN(C(C)(C)C)C[C@@]2(F)C(=O)N2CCC(c3ccc(C(F)(F)F)cc3N3CCC(C(=O)NS(C)(=O)=O)CC3)CC2)cc1
Result string: 8.12

Query string: Quickly give me recorded pEC50 for COC[C@H]1CN(C(=O)[C@]2(F)CN(C3CCOCC3)C[C@H]2c2ccc(OC)cc2)C[C@@H]1c1ccc(C(F)(F)F)cc1N1CCC(C#N)CC1.Cl.Cl [Example 278, dihydrochloride]
Result string: 7.41

Query string: Quickly give me recorded pEC50 for COc1ccc([C@@H]2CN(C(C)(C)C)C[C@@]2(F)C(=O)N2CCC(c3ccc(C(F)(F)F)cc3N3CCC(C(N)=O)CC3)CC2)cc1
Result string: 8.00

Query string: Quickly give me recorded pEC50 for COC[C@H]1CN(C(=O)[C@]2(F)CN(C3CCCC3)C[C@H]2c2ccc(OC)cc2)C[C@@H]1c1ccc(C(F)(F)F)cc1N1CCC(C(=O)N2CCC[C@@H]2C(=O)O)CC1
Result string: 8.25

Query string: Quickly give me recorded pEC50 for CCO[C@H]1CC[C@H](N2C[C@@H](c3ccc(OC)cc3)[C@](OC)(C(=O)N3C[C@H](c4ccc(C(F)(F)F)cc4N4CCC(C(=O)O)CC4)C[C@H]3COC)C2)CC1
Result string: 9.12

Query string: Quickly give me recorded pEC50 for COC[C@@H]1C[C@@H](c2ccc(C(F)(F)F)cc2N2CCC(C(=O)O)CC2)CN1C(=O)[C@]1(F)CN([C@H]2CC[C@H](OC)CC2)C[C@H]1c1ccc(OC)cc1
Result string: 9.33

Query string: Quickly give me recorded pEC50 for COc1ccc([C@@H]2CN(C(C)(C)C)C[C@@]2(F)C(=O)N2CC(c3ccc(C(F)(F)F)cc3N3CCC(C(=O)N(C)C)CC3)C2)cc1
Result string: 7.43
